# test_description: recombinant UMI read abundance after kanamycin selection (control-corrected) (log10(CPM+1)); higher = more efficient recombination; extreme values may be limits of the assay; sequences stand for … in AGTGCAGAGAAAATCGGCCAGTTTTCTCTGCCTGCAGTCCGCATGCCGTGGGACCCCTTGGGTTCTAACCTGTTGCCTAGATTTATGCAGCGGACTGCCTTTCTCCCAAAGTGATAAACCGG…AGGTTGGTTTCACT; site = the 11-nt donor;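 note: IS621 bridge recombinase in Escherichia coli cells against a fixed T5 target plasmid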
readout_kind: recombinant UMI read abundance (log10)
Answers are plain numbers.

Some solved cases for reference:
query_sequence: GTAATCACATGGACCGGTTTTCCCGGTAATCCGTATTTGCG (site GTAATCACTCG)
recombinant UMI read abundance (log10): 2.48
--
query_sequence: AGTTAGACATGGACCGGTTTTCCCGGTAATCCGTATTTGCA (site AGTTAGACTTG)
recombinant UMI read abundance (log10): 1.93
--
query_sequence: CCCTAGACATGGACCGGTTTTCCCGGTAATCCGTATTTGCT (site CCCTAGACTAG)
recombinant UMI read abundance (log10): 0.956
--
query_sequence: CTATGATCATGGACCGGTTTTCCCGGTAATCCGTATTTGAC (site CTATGATCTGT)
recombinant UMI read abundance (log10): 2.73
--
query_sequence: TCCAATTCATGGACCGGTTTTCCCGGTAATCCGTATTTGTC (site TCCAATTCTGC)
recombinant UMI read abundance (log10): 0

// each listed sequence needs a value for recombinant UMI read abundance (log10)
1. GAGAAGCCATGGACCGGTTTTCCCGGTAATCCGTATTTGAC (site GAGAAGCCTGT)
2. GATAAGGCATGGACCGGTTTTCCCGGTAATCCGTATTTGGC (site GATAAGGCTGC)

1: 0; 2: 1.3

Hi there! I need recombinant UMI read abundance (log10) for each item below, if you can.
1. CTAATATCATGGACCGGTTTTCCCGGTAATCCGTATTTGAC (site CTACTATCTGT)
2. AGCCTACCATGGACCGGTTTTCCCGGTAATCCGTATTTGTT (site AGCCTATCTAA)
3. ACTCGAACATGGACCGGTTTTCCCGGTAATCCGTATTTGTC (site ACCCGAACTGA)

1. 0
2. 0.00614
3. 1.84

Could you report recombinant UMI read abundance (log10) for every entry in the following list?
1. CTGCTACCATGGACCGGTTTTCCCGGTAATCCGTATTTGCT (site CTGCTATCTAG)
2. ATGTCGACATGGACCGGTTTTCCCGGTAATCCGTATTTGCG (site ATGTCGACTCG)
3. AAAGATTCATGGACCGGTTTTCCCGGTAATCCGTATTTGTT (site CAAGATTCTAA)
4. TTAACTGCATGGACCGGTTTTCCCGGTAATCCGTATTTGTG (site TTATCTGCTCA)
5. GTAGGTTCATGGACCGGTTTTCCCGGTAATCCGTATTTGAC (site GTAGGTCCTGT)

[1.67, 0.954, 2.12, 0.0133, 1.78]

# per-item lookup of recombinant UMI read abundance (log10); items listed below
1. GCTAGGGCATGGACCGGTTTTCCCGGTAATCCGTATTTGTT (site GCTAGGGCTAA)
2. CTGGAAACATGGACCGGTTTTCCCGGTAATCCGTATTTGGA (site CTGGAAACTTC)
3. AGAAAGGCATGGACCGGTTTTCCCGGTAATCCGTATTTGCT (site ATAAAGGCTAG)

[1.53, 1.89, 0]
